A collection of compounds and their measured IC50
# ASSAYED_TARGET: norepinephrine transporter (NET) (Rattus norvegicus)
# Sequence (Q63380 1-617): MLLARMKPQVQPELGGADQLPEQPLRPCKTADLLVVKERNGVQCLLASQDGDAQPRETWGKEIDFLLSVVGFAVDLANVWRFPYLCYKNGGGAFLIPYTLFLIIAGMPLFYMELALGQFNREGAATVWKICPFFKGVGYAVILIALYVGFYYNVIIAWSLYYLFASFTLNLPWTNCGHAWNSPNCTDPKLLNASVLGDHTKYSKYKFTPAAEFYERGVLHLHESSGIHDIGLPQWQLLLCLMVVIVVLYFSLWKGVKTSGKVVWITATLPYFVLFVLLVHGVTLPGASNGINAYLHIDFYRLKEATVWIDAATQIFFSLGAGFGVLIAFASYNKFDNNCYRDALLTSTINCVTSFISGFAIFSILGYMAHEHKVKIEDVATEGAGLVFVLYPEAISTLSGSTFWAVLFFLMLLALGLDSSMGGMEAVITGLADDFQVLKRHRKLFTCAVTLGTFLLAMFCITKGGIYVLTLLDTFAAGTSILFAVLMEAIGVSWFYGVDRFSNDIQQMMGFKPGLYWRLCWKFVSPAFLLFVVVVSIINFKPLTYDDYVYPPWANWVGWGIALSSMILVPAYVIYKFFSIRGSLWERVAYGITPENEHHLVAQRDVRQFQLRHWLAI
# ASSAY_SUMMARY: [3H]norepinephrine (NE) uptake inhibition in rat brain synaptosomes
# RUN_CONDITIONS: read-out: NET Uptake IC50; mean ± S.D.; n = 3
Could you give me the number in µM? Just the number is fine.

CS(=O)(=O)Nc1ccc(-c2nc(NCC(c3ccccc3)c3ccncc3)c3ccccc3n2)cc1 (centres unmarked); 0.044
Cc1cc2nccn2cc1-c1nc(NCC(c2ccccc2)c2ccncc2)c2ccccc2n1 (centres unmarked); 0.017
Cn1cc2cc(-c3nc(NCC(c4ccccc4)c4ccccc4)c4ccccc4n3)ccc2n1; 0.229

Asked: Item c1ccc(C(CCNc2nc(-c3cccnc3)nc3ccccc23)c2ccccc2)cc1 has what recorded IC50?
Given back: 1.74

Asked: And for Cc1cc(NS(C)(=O)=O)ccc1-c1nc(NCC(c2ccccc2)c2ccncc2)c2ccccc2n1 (centres unmarked) ?
Given back: 0.031

Asked: And for c1ccc(C(CNc2nc(-c3ccc4nccn4c3)nc3ccccc23)c2cccnc2)cc1 (centres unmarked) ?
Given back: 0.078

Asked: And for c1ccc(C(CNc2nc(-c3ccc4nccn4c3)nc3ccccc23)c2ccc[nH]2)cc1 (centres unmarked) ?
Given back: 0.088

Asked: And for CN(C)c1ncc(-c2nc(NCCC(c3ccccc3)c3ccccc3)c3ccccc3n2)cn1 ?
Given back: 8.13

----------
A collection of molecules and their measured Apparent Kc
# ASSAYED_TARGET: dopamine transporter (DAT) (Rattus norvegicus (Rat))
# ASSAY_SUMMARY: Dopamine transporter-mediated [3H]MPP+ release (d-amphetamine-induced, shift experiments) in rat caudate synaptosomes
# Format: biochemical
# RUN_CONDITIONS: [3H]MPP+ release; [Blocker]/((EC50-2/EC50-1) − 1)

In the examples that follow, each entry is paired with its recorded Apparent Kc.
c1ccc(C(CCNc2nc(-c3cccnc3)nc3ccccc23)c2ccccc2)cc1; 7050 nM
c1ccc(C(CNc2nc(-c3cnc4nccn4c3)nc3ccccc23)c2ccncc2)cc1 (centres unmarked); 1200 nM

Asked: Item c1ccc(C(CNc2nc(-c3ccc4nccn4c3)nc3ccccc23)c2ccc[nH]2)cc1 (centres unmarked) has what recorded Apparent Kc?
Given back: 1600 nM

Asked: And for CN(C)c1ncc(-c2nc(NCCC(c3ccccc3)c3ccccc3)c3ccccc3n2)cn1 ?
Given back: 64580 nM

Asked: And for c1ccc(C(CNc2nc(-c3cnc4nccn4c3)nc3ccccc23)c2ccccc2)cc1 ?
Given back: -1070 nM

----------
# ASSAYED_TARGET: dopamine transporter (DAT) (Rattus norvegicus (Rat), UniProt P23977)
# Sequence (P23977 whole entry): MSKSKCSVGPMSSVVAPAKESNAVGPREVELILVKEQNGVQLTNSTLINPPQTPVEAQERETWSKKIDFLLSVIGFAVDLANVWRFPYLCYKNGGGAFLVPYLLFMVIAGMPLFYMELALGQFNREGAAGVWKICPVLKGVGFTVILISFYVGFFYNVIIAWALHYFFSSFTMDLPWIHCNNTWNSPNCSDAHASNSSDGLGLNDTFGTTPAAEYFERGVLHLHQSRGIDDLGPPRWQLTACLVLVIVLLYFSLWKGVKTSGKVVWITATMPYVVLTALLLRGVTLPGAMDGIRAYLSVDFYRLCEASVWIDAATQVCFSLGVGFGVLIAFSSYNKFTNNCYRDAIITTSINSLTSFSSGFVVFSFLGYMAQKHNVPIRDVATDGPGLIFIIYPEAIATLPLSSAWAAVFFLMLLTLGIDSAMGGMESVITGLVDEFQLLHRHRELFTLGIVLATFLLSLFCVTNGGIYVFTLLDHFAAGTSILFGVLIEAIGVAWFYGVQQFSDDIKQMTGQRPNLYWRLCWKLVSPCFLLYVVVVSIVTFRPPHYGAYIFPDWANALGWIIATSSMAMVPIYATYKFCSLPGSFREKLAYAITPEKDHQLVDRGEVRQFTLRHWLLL
# ASSAY_SUMMARY: [3H]dopamine (DA) uptake inhibition in rat brain (caudate) synaptosomes
# Format: biochemical
# RUN_CONDITIONS: mean ± S.D.; n = 3; read-out: DAT Uptake Emax
A collection of compounds and their measured Emax
Could you give me the number in %? Just the number is fine.

Cc1cc(NS(C)(=O)=O)ccc1-c1nc(NCC(c2ccccc2)c2ccccc2)c2ccccc2n1 [Compound 52]; 60
CS(=O)(=O)Nc1ccc(-c2nc(NCC(c3ccccc3)c3ccccc3)c3ccccc3n2)cc1 [Compound 50]; 70
c1ccc(C(CCNc2nc(-c3ccc4[nH]ccc4c3)nc3ccccc23)c2ccccc2)cc1 [SRI-29213]; 81

Asked: Item CNc1ncc(-c2nc(NCC(c3ccccc3)c3ccccc3)c3ccccc3n2)cn1 [SRI-29554] has what recorded Emax?
Given back: 71

Asked: And for CN(C)c1ccc(-c2nc(NCC(c3ccccc3)c3ccccc3)c3ccccc3n2)cc1 [Compound 51] ?
Given back: 70

----------
# ASSAYED_TARGET: dopamine transporter (DAT) (Rattus norvegicus (Rat), UniProt P23977)
# ASSAY_SUMMARY: Dopamine transporter-mediated [3H]MPP+ release (d-amphetamine-induced, shift experiments) in rat caudate synaptosomes
# Format: biochemical
# RUN_CONDITIONS: read-out: d-Amphetamine Emax in presence of blocker; [3H]MPP+ release; blocker concentration per row; mean ± S.D.; n = 3
RESULT_TYPE: Emax (%)
Could you give me the number in %? Just the number is fine.

In the examples that follow, each entry is paired with its recorded Emax.
Cc1cc2nccn2cc1-c1nc(NCC(c2ccccc2)c2ccc[nH]2)c2ccccc2n1 (stereo not drawn) [SRI-31040]; 105
CS(=O)(=O)Nc1ccc(-c2nc(NCC(c3ccccc3)c3ccccc3)c3ccccc3n2)cc1 [Compound 50]; 102

Asked: Item CS(=O)(=O)Nc1ccc(-c2nc(NCC(c3ccccc3)c3ccncc3)c3ccccc3n2)cc1 (stereo not drawn) [Compound 10] has what recorded Emax?
Given back: 103

Asked: And for CN(C)c1ccc(-c2nc(NCC(c3ccccc3)c3ccccc3)c3ccccc3n2)cc1 [Compound 51] ?
Given back: 101

Asked: And for Cc1cc2nccn2cc1-c1nc(NCC(O)(c2ccccc2)c2ccccc2)c2ccccc2n1 [SRI-31143] ?
Given back: 104

Asked: And for c1ccc(C(CNc2nc(-c3cnc4nccn4c3)nc3ccccc23)C2CCCCC2)cc1 (stereo not drawn) [SRI-30517] ?
Given back: 104

Asked: And for c1ccc(C(CNc2nc(-c3ccc4ncnn4c3)nc3ccccc23)c2ccccc2)cc1 [SRI-30522] ?
Given back: 105

Asked: And for CN(C)c1ncc(-c2nc(NCC(c3ccccc3)c3ccccc3)c3ccccc3n2)cn1 [SRI-29153] ?
Given back: 101

Asked: And for Cc1cc2nccn2cc1-c1nc(NCC(c2ccccc2)c2ccncc2)c2ccccc2n1 (stereo not drawn) [SRI-31142] ?
Given back: 103

Asked: And for CN(C)c1ncc(-c2nc(NCCC(c3ccccc3)c3ccccc3)c3ccccc3n2)cn1 [SRI-29212] ?
Given back: 103

Asked: And for c1ccc(C(CCNc2nc(-c3cccnc3)nc3ccccc23)c2ccccc2)cc1 [SRI-29070] ?
Given back: 98

Asked: And for c1ccc(C(CNc2nc(-c3ccc4[nH]ccc4c3)nc3ccccc23)c2ccccc2)cc1 [SRI-29155] ?
Given back: 94

----------
# ASSAYED_TARGET: DAT (Rattus norvegicus (Rat), UniProt P23977)
# ASSAY_SUMMARY: Inhibition of [3H]WIN35428 binding to rat caudate DAT
# RUN_CONDITIONS: [3H]WIN35428; mean ± S.D.; n = 3
The label is T for Emax below 50% and F for Emax equal to or exceeding 50%.

Known results for molecules:
CN(C)c1ncc(-c2nc(NCCC(c3ccccc3)c3ccccc3)c3ccccc3n2)cn1; F
OC(CNc1nc(-c2ccc3[nH]ccc3c2)nc2ccccc12)(c1ccccc1)c1ccccc1; F
c1ccc(C(CNc2nc(-c3ccc4[nH]ccc4c3)nc3ccccc23)c2ccccc2)cc1; F

Asked: Emax strictly < 50% for this molecule? c1ccc(C(CNc2nc(-c3cnc4nccn4c3)nc3ccccc23)c2ccccc2)cc1
Given back: T

Asked: And for c1ccc(C(CCNc2nc(-c3cccnc3)nc3ccccc23)c2ccccc2)cc1 ?
Given back: F

Asked: And for CNc1ncc(-c2nc(NCC(c3ccccc3)c3ccccc3)c3ccccc3n2)cn1 ?
Given back: F

Asked: And for CS(=O)(=O)Nc1ccc(-c2nc(NCC(c3ccccc3)c3ccccc3)c3ccccc3n2)c(Cl)c1 ?
Given back: T

----------
# ASSAYED_TARGET: DAT (Rattus norvegicus (Rat), UniProt P23977)
RESULT_TYPE: IC50
Report field: quantity (unit follows the number).

c1ccc(C(CCNc2nc(-c3cccnc3)nc3ccccc23)c2ccccc2)cc1; 1800 nM
c1ccc(C(CNc2nc(-c3cnc4nccn4c3)nc3ccccc23)c2ccccn2)cc1 (centres unmarked); 4800 nM
OC(CNc1nc(-c2ccc3[nH]ccc3c2)nc2ccccc12)(c1ccccc1)c1ccccc1; 1290 nM

Asked: Item c1ccc(C(CNc2nc(-c3cccnc3)nc3ccccc23)c2ccccc2)cc1 has what recorded IC50?
Given back: 2700 nM

Asked: And for c1ccc(C(CCNc2nc(-c3ccc4[nH]ccc4c3)nc3ccccc23)c2ccccc2)cc1 ?
Given back: 200 nM

Asked: And for c1ccc(C(CNc2nc(-c3cnc4nccn4c3)nc3ccccc23)c2ccccc2)cc1 ?
Given back: 1220 nM

Asked: And for CN(C)c1ncc(-c2nc(NCC(c3ccccc3)c3ccccc3)c3ccccc3n2)cn1 ?
Given back: 1700 nM

Asked: And for OC(CNc1nc(-c2cnc3nccn3c2)nc2ccccc12)(c1ccccc1)c1ccccc1 ?
Given back: 150 nM

----------
# ASSAYED_TARGET: dopamine transporter (DAT) (Rattus norvegicus (Rat), UniProt P23977)
# ASSAY_SUMMARY: Dopamine transporter-mediated [3H]MPP+ release (d-amphetamine-induced, shift experiments) in rat caudate synaptosomes
# Assay type: biochemical
# RUN_CONDITIONS: read-out: d-Amphetamine Emax in presence of blocker; [3H]MPP+ release; blocker concentration per row; mean ± S.D.; n = 3
RESULT_TYPE: Emax (%)
Could you give me the number in %? Just the number is fine.

In the examples that follow, each entry is paired with its recorded Emax.
CN(C)c1ccc(-c2nc(NCC(c3ccccc3)c3ccccc3)c3ccccc3n2)cn1; 99
c1ccc(C(CNc2nc(-c3ccc4nccn4c3)nc3ccccc23)c2ccccc2)cc1; 103
c1ccc(C(CNc2nc(-c3ccc4nccn4c3)nc3ccccc23)c2ccc[nH]2)cc1 (stereo not shown); 105

Attention now shifts to the item below.
Asked: Item Cc1cc2nccn2cc1-c1nc(NCC(c2ccccc2)c2ccccc2)c2ccccc2n1 has what recorded Emax?
Given back: 104
